test system: wild-type 3D7 parasites; assay: Antiparasitic activity in wild-type 3D7 parasites; assay type: cell-based; settings: Plasmodium falciparum, 3D7, read-out: EC50 in wild-type parasites
measure: pEC50
Friendly reminder that pEC50 comes from taking -log10 of the concentration in mol/L.

query: Sample O=C(NC1Cc2ccccc2C1)c1nccnc1NC(=O)N1CCCCC1 [Compound 18] — what was its pEC50?
result: 7.11

---

tested on: HFG-tolerant 3D7 parasites; assay: Antiparasitic activity in HFG-tolerant 3D7 parasites; assay type: cell-based; conditions: Plasmodium falciparum, 3D7, read-out: EC50 in HFG-tolerant parasites
measure: pEC50
Friendly reminder that pEC50 comes from taking -log10 of the concentration in mol/L.

query: Sample O=C(NC1Cc2ccccc2C1)c1nccnc1NC(=O)N1CCCCC1 [Compound 18] — what was its pEC50?
result: 6.89
